Property: MFC; scope: individual compounds
# Tested on: Candida albicans
# assay-comment: Antifungal activity against Candida albicans ATCC 10231 after 1 hr by CLSI M26-A based method at room temperature
# Assay type: functional
# condition-details: ATCC 10231, 1 h
Give the value in µg/mL but do not write µg/mL after it.

Lookup: // MFC lookup, key: C[n+]1ccc(CCC(C)(C)N(Cl)Cl)cc1.[Cl-]
Found: 1020

Lookup: Moving on to the next compound: CC(C)(c1cn(CCS(=O)(=O)O)nn1)N(Cl)Cl
Found: 32

Lookup: What about this compound? CC(C)(C[N+](C)(C)C)N(Cl)Cl.[Cl-]
Found: 128

Lookup: Request: CC(C)(CC(=O)NCCS(=O)(=O)O)N(Cl)Cl
Found: 64

----------
# assay-comment: Stability in water assessed as half life at pH 4 at 40 degC
# Type: physicochemical
measure: half-life (h)
Express the result in h but write the number alone.

structure-smiles | half-life / h
CC(C)(CNC(=O)CCS(=O)(=O)O)N(Cl)Cl | 12

Lookup: Dear colleague, I am looking for the recorded half-life of the following compound: CC(C)(COCCCS(=O)(=O)O)N(Cl)Cl
Found: 2.5

----------
# assay-comment: Stability in saline solution assessed as half life at pH 4
# Format: physicochemical
Mark true only when half-life stays strictly below 50 days. Values equal to the cut-off are false.

Check out these entries, answers already filled in.
structure-smiles | class-label
CC(C)(C[N+](C)(C)CCS(=O)(=O)O)N(Cl)Cl.[Cl-] | false
Cn1nc[n+](C)c1CC(C)(C)N(Cl)Cl.[Cl-] | false
CC(C)(CS(=O)(=O)[O-])N(Cl)Cl.[Na+] | false

Lookup: Strictly below 50 days in half-life? CC(C)(C[N+]1(C)CCOCC1)N(Cl)Cl.[Cl-]
Found: true

Lookup: CN(CC[N+](C)(C)C)C(=O)CC(C)(C)N(Cl)Cl.[Cl-] ?
Found: true

Lookup: Now this one: CC(=O)N1CC[N+](C)(CC(C)(C)N(Cl)Cl)CC1.[Cl-]
Found: true

Lookup: Entry CC(C)(c1cn(CCS(=O)(=O)O)nn1)N(Cl)Cl please
Found: true

Lookup: Param item: Cc1nn(C)c(CC(C)(C)N(Cl)Cl)[n+]1C.[Cl-]
Found: false

Lookup: Try this compound next: Cc1nc(CC(C)(C)N(Cl)Cl)n(CCS(=O)(=O)O)n1
Found: true

Lookup: Same question, CN(CCS(=O)(=O)O)C(=O)CC(C)(C)N(Cl)Cl this time
Found: true

Lookup: C[n+]1ccc(CCC(C)(C)N(Cl)Cl)cc1.[Cl-] , same question.
Found: false

----------
# assay-comment: Stability in phosphate buffer assessed as half life at pH 7
# Type: physicochemical
measure: half-life (h)
The reply should contain only the number, in h.

Guide cases for half-life, answers given:
structure-smiles | half-life, h
CC(C)(c1cn(CCS(=O)(=O)O)nn1)N(Cl)Cl | 120
Cn1nc[n+](C)c1CC(C)(C)N(Cl)Cl.[Cl-] | 120
Cc1nn(C)c(CC(C)(C)N(Cl)Cl)[n+]1C.[Cl-] | 96
C[S+](C)CC(C)(C)N(Cl)Cl.[Cl-] | 24
CC(C)(Cc1ncnn1CCS(=O)(=O)O)N(Cl)Cl | 552
CN(CCS(=O)(=O)O)C(=O)CC(C)(C)N(Cl)Cl | 24
CC(C)(C[N+](C)(C)CCS(=O)(=O)O)N(Cl)Cl.[Cl-] | 456
CC(C)(Cc1nc(CS(=O)(=O)O)no1)N(Cl)Cl | 408

Lookup: Consider the molecule CN(CC[N+](C)(C)C)C(=O)CC(C)(C)N(Cl)Cl.[Cl-] and give its measured half-life.
Found: 144

Lookup: Consider next the molecule CC(C)(C[N+]1(C)CCCCC1)N(Cl)Cl.[Cl-] in the same way.
Found: 2400

Lookup: Would you mind doing Cc1nc(CC(C)(C)N(Cl)Cl)n(CCS(=O)(=O)O)n1 as well?
Found: 1200

Lookup: Okay, and CC(C)(CC(=O)OCC[N+]1(C)CCCCC1)N(Cl)Cl.[Cl-] ?
Found: 168
